experiment: Equilibrium solubility, saturation shake-flask, centrifugation as phase separation; conditions: Britton-Robinson buffer, 25 °C, pH 6.4, aqueous buffer, thermodynamic from solid, Equilibrium solubility S stir, pH 6.4; continuously stirred, no sedimentation; 5000 rpm, 20 min
Where a name gives a salt, the structure may show the parent alone.
parameter_measured: solubility thermodynamic at 24 h (mg/mL)

1) COc1ccc(Cc2nccc3cc(OC)c(OC)cc23)cc1OC [PAP-HCL, papaverine hydrochloride]	0.0329

---

assay: Equilibrium solubility, saturation shake-flask, centrifugation as phase separation; settings: Britton-Robinson buffer, 25 °C, pH 6.4, aqueous buffer, thermodynamic from solid, Equilibrium solubility S sed, pH 6.4; sedimented before centrifugation; 10,000 rpm, 5 min
Where a name gives a salt, the structure may show the parent alone.
parameter_measured: solubility thermodynamic (µg/mL)

1) COc1ccc(Cc2nccc3cc(OC)c(OC)cc23)cc1OC [PAP-HCL, papaverine hydrochloride]	24.4
